The reader will find reported Km values listed item by item below.
Substrate: O=c1ccn([C@@H]2O[C@H](COP(=O)(O)OP(=O)(O)O[C@H]3O[C@H](CO)[C@H](O)[C@H](O)[C@H]3O)[C@@H](O)[C@H]2O)c(=O)[nH]1
protocol text: UDP release, Michaelis-Menten fit
Format: biochemical, Homo sapiens
test conditions: 2 mM Gb4 glycan fixed, 20 mM HEPES pH 7.4, 0.1 mM MnCl2
// units = mM; emit number, no label

Some solved entries appear below for comparison.
[
  {
    "protein": "soluble β3GalT5-1 (HEK293) (Homo sapiens; Q69M) (protein, soluble luminal domain N29-V310, no TM; expressed in HEK293 cells, complex-type N-glycans) NPFKEQSFVYKKDGNFLKLPDTDCRQTPPFLVLLVTSSHKMLAERMAIRQTWGKERMVKGKQLKTFFLLGTTSSAAETKEVDQESQRHGDIIQKDFLDVYYNLTLKTMMGIEWVHRFCPQAAFVMKTDSDMFINVDYLTELLLKKNRTTRFFTGFLKLNEFPIRQPFSKWFVSKSEYPWDRYPPFCSGTGYVFSGDVASQVYNVSKSVPYIKLEDVFVGLCLERLNIRLEELHSQPTFFPGGLRFSVCLFRRIVACHFIKPRTLLDYWQALENSRGEDCPPV",
    "Km [mM]": 0.21
  },
  {
    "protein": "soluble β3GalT5-1 (HEK293) (Homo sapiens; Q69M/S66A) (protein, soluble luminal domain N29-V310, no TM; expressed in HEK293 cells, complex-type N-glycans) NPFKEQSFVYKKDGNFLKLPDTDCRQTPPFLVLLVTSAHKMLAERMAIRQTWGKERMVKGKQLKTFFLLGTTSSAAETKEVDQESQRHGDIIQKDFLDVYYNLTLKTMMGIEWVHRFCPQAAFVMKTDSDMFINVDYLTELLLKKNRTTRFFTGFLKLNEFPIRQPFSKWFVSKSEYPWDRYPPFCSGTGYVFSGDVASQVYNVSKSVPYIKLEDVFVGLCLERLNIRLEELHSQPTFFPGGLRFSVCLFRRIVACHFIKPRTLLDYWQALENSRGEDCPPV",
    "Km [mM]": 0.27
  },
  {
    "protein": "soluble β3GalT5-1 (HEK293) (Homo sapiens) (protein, soluble luminal domain N29-V310, no TM; expressed in HEK293 cells, complex-type N-glycans) NPFKEQSFVYKKDGNFLKLPDTDCRQTPPFLVLLVTSSHKQLAERMAIRQTWGKERMVKGKQLKTFFLLGTTSSAAETKEVDQESQRHGDIIQKDFLDVYYNLTLKTMMGIEWVHRFCPQAAFVMKTDSDMFINVDYLTELLLKKNRTTRFFTGFLKLNEFPIRQPFSKWFVSKSEYPWDRYPPFCSGTGYVFSGDVASQVYNVSKSVPYIKLEDVFVGLCLERLNIRLEELHSQPTFFPGGLRFSVCLFRRIVACHFIKPRTLLDYWQALENSRGEDCPPV",
    "Km [mM]": 0.14
  }
]

Next, consider the following protein.
[ask] Given the protein soluble β3GalT5-1 (HEK293) (Homo sapiens; Q69A) (protein, soluble luminal domain N29-V310, no TM; expressed in HEK293 cells, complex-type N-glycans) NPFKEQSFVYKKDGNFLKLPDTDCRQTPPFLVLLVTSSHKALAERMAIRQTWGKERMVKGKQLKTFFLLGTTSSAAETKEVDQESQRHGDIIQKDFLDVYYNLTLKTMMGIEWVHRFCPQAAFVMKTDSDMFINVDYLTELLLKKNRTTRFFTGFLKLNEFPIRQPFSKWFVSKSEYPWDRYPPFCSGTGYVFSGDVASQVYNVSKSVPYIKLEDVFVGLCLERLNIRLEELHSQPTFFPGGLRFSVCLFRRIVACHFIKPRTLLDYWQALENSRGEDCPPV , what is its reported Km?
[reply] 0.30
